Biological target: CDK15/Cyclin Y (Homo sapiens, UniProt Q96Q40)
Sequence (Q96Q40 whole entry): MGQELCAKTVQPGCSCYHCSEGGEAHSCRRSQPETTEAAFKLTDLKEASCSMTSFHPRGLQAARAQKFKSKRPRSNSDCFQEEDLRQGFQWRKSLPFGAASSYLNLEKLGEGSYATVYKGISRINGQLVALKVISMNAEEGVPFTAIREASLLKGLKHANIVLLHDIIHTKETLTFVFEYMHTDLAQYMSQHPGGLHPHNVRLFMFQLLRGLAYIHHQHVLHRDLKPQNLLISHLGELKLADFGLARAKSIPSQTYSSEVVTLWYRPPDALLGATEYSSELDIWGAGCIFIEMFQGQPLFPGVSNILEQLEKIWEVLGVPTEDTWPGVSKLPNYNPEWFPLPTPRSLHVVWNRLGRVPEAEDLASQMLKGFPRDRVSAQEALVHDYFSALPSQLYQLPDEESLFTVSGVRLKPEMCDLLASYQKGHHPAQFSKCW
Sequence (Q8ND76 whole entry partner): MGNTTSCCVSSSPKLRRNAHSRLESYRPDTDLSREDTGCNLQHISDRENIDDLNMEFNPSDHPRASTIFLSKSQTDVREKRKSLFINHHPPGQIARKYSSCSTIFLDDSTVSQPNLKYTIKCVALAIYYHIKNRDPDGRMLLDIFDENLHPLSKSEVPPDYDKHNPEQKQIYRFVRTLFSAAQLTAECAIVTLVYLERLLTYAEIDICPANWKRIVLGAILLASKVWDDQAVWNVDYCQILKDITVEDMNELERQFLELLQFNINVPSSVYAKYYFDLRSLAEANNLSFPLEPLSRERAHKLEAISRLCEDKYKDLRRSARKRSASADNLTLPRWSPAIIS
Test: NanoBRET live-cell target engagement, NanoLuc-CDK15/Cyclin Y in HEK-293
Assay type: binding
Details: CDK15/Y; experiment 1; read-out: Inhibition at 10µM (%)
// inhibition at 10 µM lookup, one value per entry
Supply the numeric figure in %, leaving out any unit text.

// sample CC(C)(C)c1nc(-c2cccc(NS(=O)(=O)c3c(F)cccc3F)c2F)c(-c2ccnc(N)n2)s1 , its inhibition at 10 µM was 4.4

// sample CN1CCN(c2ccc(Nc3ncc4cc(C#N)c(=O)n(C5CCCC5)c4n3)cc2)CC1 , its inhibition at 10 µM was 36

// sample CNC(=O)c1nn(C)c2c1C(C)(C)Cc1cnc(Nc3ccc(N4CCN(C)CC4)cc3)nc1-2 , its inhibition at 10 µM was 83.8

// sample CN1CCN(Cc2ccc(NC(=O)Nc3ccc(Oc4ccnc(N)n4)cc3)cc2C(F)(F)F)CC1 , its inhibition at 10 µM was 82.9

// sample CC(C)N1CCN(c2ccc(Nc3ncc4cc5n(c4n3)C3(CCCCC3)CNC5=O)nc2)CC1 , its inhibition at 10 µM was 5

// sample CC(C)c1cnn2c(NCc3ccccc3)cc(NC[C@H]3CCNC[C@@H]3O)nc12 , its inhibition at 10 µM was 72.2

// sample N#CCNC(=O)c1ccc(-c2ccnc(Nc3ccc(N4CCOCC4)cc3)n2)cc1 , its inhibition at 10 µM was 12.2

// sample COc1ccc(F)cc1-c1cc(NC(=O)C2CCCNC2)ncc1Cl (stereo not drawn) , its inhibition at 10 µM was 93.4

// sample Cn1cc(-c2ccc(-c3cncc(Cl)c3N3CCC4(CCNC4=O)CC3)cc2)cn1 , its inhibition at 10 µM was 2.4

###

Target: CDK18/Cyclin Y (Homo sapiens, UniProt Q07002)
Sequence (Q07002 whole entry, one chain of several): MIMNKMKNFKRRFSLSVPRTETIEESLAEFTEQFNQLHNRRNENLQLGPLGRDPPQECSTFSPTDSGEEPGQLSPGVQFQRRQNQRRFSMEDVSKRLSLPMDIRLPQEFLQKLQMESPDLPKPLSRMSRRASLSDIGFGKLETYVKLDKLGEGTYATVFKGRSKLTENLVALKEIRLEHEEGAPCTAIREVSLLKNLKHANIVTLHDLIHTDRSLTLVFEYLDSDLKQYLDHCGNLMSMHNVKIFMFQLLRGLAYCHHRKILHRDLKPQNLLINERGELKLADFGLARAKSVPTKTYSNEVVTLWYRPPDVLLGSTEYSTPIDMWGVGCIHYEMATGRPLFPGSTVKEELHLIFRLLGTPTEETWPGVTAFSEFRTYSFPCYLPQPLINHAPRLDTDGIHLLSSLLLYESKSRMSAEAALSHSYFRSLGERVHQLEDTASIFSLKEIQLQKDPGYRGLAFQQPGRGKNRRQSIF
Experiment: NanoBRET live-cell target engagement, CDK18-NanoLuc/Cyclin Y in HEK-293
Assay type: binding
Settings: IC50 (nM) Average*, CDK18/Y; n=3 average ± SEM, n=2 average to 2 significant figures
readout: IC50 (nM)
Supply the numeric figure in nM, leaving out any unit text.

// sample CCN1CCN(Cc2ccc(Nc3ncc(F)c(-c4cc(F)c5nc(C)n(C(C)C)c5c4)n3)nc2)CC1 [Abemaciclib] , its IC50 was 380

###

// inhibition at 10 µM lookup, one value per entry
Molecular target: CDK7 (Homo sapiens)
Sequence (P50613 whole entry): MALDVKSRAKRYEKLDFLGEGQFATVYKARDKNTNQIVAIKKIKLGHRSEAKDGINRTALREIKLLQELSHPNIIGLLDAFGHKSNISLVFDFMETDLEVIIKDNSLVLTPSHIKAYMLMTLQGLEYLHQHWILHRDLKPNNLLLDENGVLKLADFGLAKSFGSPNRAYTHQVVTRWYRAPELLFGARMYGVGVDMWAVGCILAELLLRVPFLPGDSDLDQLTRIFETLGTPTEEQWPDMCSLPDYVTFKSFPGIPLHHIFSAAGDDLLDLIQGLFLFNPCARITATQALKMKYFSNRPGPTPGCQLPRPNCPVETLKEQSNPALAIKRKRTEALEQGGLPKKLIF
Test: NanoBRET live-cell target engagement, NanoLuc-CDK7 in HEK-293
Assay type: binding
Conditions: 10µM; independent experiment 1; read-out: CDK7 Inhibition at 10µM (%)
Supply the numeric figure in %, leaving out any unit text.

// sample COCCN1CCN(Cc2ccc(-c3n[nH]c4c3C(=O)c3c(NC(=O)NN5CCOCC5)cccc3-4)cc2)CC1 [RGB286638] , its inhibition at 10 µM was 91

// sample CN(C)C(=O)c1cc2cnc(Nc3ccc(N4CCNCC4)cn3)nc2n1C1CCCC1 [Ribociclib] , its inhibition at 10 µM was 8.5

// sample CC(C)CC(=O)Nc1[nH]nc2c1CN(C(=O)C1CCN(C)CC1)C2(C)C [PHA-793887] , its inhibition at 10 µM was 95.3

###

Biological target: CDK3/Cyclin E1 (Homo sapiens)
Sequence (Q00526 whole entry): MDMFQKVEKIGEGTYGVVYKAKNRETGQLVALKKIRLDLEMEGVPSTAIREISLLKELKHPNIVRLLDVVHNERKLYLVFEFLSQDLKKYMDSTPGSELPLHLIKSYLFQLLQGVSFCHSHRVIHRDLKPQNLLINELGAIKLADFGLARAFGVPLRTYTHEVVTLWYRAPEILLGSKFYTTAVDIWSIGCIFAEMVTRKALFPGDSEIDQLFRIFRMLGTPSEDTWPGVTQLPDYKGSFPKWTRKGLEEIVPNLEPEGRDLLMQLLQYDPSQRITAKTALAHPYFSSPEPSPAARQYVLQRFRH
Sequence (P24864 whole entry partner): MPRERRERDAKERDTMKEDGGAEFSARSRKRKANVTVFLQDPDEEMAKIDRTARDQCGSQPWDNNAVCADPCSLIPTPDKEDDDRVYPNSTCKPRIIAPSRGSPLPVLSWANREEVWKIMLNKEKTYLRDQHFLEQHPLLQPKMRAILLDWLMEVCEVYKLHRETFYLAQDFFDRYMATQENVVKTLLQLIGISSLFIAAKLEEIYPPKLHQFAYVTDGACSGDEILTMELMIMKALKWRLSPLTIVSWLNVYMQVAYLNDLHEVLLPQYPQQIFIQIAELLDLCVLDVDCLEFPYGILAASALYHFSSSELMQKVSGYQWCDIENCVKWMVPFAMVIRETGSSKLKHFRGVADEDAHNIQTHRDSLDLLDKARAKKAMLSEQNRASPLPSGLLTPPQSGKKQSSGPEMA
Experiment: NanoBRET live-cell target engagement, CDK3-NanoLuc/Cyclin E1 in HEK-293
Assay type: binding
Conditions: 10µM; independent experiment 1; read-out: CDK3/E1 Inhibition at 10µM (%)
readout: inhibition at 10 µM (%)
Supply the numeric figure in %, leaving out any unit text.

CC(C)CC(=O)Nc1[nH]nc2c1CN(C(=O)C1CCN(C)CC1)C2(C)C	93.4

// sample CC(C)[C@H](CO)Nc1nc(Nc2ccc(C(=O)O)c(Cl)c2)c2ncn(C(C)C)c2n1 , its inhibition at 10 µM was 41.5

###

Target: CDK4/Cyclin D1 (Homo sapiens, UniProt P11802)
Sequence (P11802 whole entry): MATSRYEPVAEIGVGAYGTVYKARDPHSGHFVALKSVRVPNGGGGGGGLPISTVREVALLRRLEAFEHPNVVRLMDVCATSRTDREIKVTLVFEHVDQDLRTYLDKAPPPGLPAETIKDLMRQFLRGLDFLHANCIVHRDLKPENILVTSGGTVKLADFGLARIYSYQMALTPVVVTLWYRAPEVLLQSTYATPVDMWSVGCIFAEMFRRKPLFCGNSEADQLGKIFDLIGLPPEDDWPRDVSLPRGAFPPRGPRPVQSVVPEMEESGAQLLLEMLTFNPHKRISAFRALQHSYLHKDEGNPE
Sequence (P24385 whole entry partner): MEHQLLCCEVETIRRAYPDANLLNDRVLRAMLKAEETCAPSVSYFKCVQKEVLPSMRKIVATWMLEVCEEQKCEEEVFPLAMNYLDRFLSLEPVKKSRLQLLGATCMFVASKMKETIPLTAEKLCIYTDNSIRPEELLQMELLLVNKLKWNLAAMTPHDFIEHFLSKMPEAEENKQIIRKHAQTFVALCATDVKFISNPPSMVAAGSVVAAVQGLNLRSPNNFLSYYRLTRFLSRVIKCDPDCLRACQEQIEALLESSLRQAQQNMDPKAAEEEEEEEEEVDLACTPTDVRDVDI
Assay: NanoBRET live-cell target engagement, NanoLuc-CDK4/Cyclin D1 in HEK-293
Assay type: binding
Conditions: CDK4/D1; experiment 2; read-out: IC50
readout: pIC50
API: returns pIC50 as number; meaning -log10 of concentration in mol/L.

CN1CCN(c2ccc(Nc3ncc4cc(C#N)c(=O)n(C5CCCC5)c4n3)cc2)CC1	8.30

// sample CNc1nc(C)c(-c2nc(Nc3cccc(S(N)(=O)=O)c3)ncc2F)s1 , its pIC50 was 7.96

// sample CC(C)c1c2cc(-c3ccnc(N[C@H]4CC[C@H](NC5CCOCC5)CC4)n3)ccc2nn1C , its pIC50 was 7.44

// sample CS(=O)(=O)N1CCC(NC(=O)c2[nH]ncc2NC(=O)c2c(Cl)cccc2Cl)CC1 , its pIC50 was 7.96

###

Target: CDK16/Cyclin Y (Homo sapiens, UniProt Q00536)
Sequence (Q00536 whole entry): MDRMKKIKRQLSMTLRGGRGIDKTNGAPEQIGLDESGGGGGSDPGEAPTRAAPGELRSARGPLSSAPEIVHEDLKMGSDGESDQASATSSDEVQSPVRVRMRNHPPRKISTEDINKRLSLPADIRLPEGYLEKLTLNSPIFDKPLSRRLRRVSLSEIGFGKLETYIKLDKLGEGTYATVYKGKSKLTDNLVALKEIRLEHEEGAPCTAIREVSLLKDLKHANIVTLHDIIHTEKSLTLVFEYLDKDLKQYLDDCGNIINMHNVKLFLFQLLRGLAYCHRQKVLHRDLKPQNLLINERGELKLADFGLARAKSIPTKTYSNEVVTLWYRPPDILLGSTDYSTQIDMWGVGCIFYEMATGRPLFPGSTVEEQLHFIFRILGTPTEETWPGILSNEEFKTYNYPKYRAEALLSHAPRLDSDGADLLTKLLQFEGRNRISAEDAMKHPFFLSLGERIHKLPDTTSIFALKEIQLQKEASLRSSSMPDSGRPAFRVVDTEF
Sequence (Q8ND76 whole entry partner): as the sequence (Q8ND76 whole entry partner) above
Assay: NanoBRET live-cell target engagement, CDK16-NanoLuc/Cyclin Y in HEK-293
Format: binding
Conditions: CDK16/Y; read-out: IC50 (nM) Replicate 2
// IC50 lookup, one value per entry
Supply the numeric figure in nM, leaving out any unit text.

Answered cases to consult:
C[C@H]1CC[C@H](n2c3cnccc3c3cnc(Nc4ccc5c(n4)CCN(C(=O)CO)C5)nc32)CC1 [AMG 925]	420
CNC1CCN(C(=O)c2ccc(Nc3ncc(F)c(-c4cnc(C)n4C(C)C)n3)cc2)C1 (stereo not shown) [AZD5597]	18
CC(C)c1cnn2c(NCc3ccccc3)cc(N[C@@H](CO)[C@H](O)CO)nc12 [BS-194]	770

Then there is this compound:
// sample CCCCOc1c(C(=O)c2c(F)cc(C)cc2F)c[nH]c2nncc1-2 [BMS-265246] , its IC50 was 63

###

Molecular target: CDK11B/Cyclin L2 (Homo sapiens, UniProt P21127)
Sequence (P21127 1-782 isoform P21127-2): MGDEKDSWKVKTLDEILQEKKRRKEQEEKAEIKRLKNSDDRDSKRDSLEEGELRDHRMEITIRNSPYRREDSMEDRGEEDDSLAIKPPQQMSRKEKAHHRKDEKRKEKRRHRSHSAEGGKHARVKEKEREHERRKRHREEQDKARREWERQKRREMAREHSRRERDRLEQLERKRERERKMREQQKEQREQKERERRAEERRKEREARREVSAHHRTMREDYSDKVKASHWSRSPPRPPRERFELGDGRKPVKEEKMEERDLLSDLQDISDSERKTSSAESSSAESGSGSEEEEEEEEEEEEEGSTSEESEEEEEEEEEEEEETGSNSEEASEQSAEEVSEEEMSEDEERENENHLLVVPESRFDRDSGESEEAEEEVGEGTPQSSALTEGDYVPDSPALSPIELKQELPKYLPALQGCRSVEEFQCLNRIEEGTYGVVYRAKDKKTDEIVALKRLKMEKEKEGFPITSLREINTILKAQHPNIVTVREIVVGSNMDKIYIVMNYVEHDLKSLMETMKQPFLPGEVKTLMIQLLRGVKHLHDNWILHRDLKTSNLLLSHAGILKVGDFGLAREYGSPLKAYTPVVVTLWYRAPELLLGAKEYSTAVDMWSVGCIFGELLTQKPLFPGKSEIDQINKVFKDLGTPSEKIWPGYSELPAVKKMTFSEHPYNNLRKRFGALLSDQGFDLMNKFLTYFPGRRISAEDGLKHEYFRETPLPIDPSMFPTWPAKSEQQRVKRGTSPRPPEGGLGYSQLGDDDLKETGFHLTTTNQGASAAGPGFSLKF
Experiment: NanoBRET live-cell target engagement, CDK11B-NanoLuc/Cyclin L2 in HEK-293
Assay type: binding
Conditions: CDK11b/L2; experiment 2; read-out: Inhibition at 10µM (%)
Threshold rule: inhibition at 10 µM greater than or equal to 50% is fulfilled; below that, not fulfilled.

See these solved cases before continuing.
CNC(=O)c1nn(C)c2c1C(C)(C)Cc1cnc(Nc3ccc(N4CCN(C)CC4)cc3)nc1-2	not fulfilled
CN1CC[C@H](c2c(O)cc(O)c3c(=O)cc(-c4ccccc4Cl)oc23)[C@H](O)C1	fulfilled
CC(C)(C)c1nc(-c2cccc(NS(=O)(=O)c3c(F)cccc3F)c2F)c(-c2ccnc(N)n2)s1	not fulfilled
Cn1cc(-c2ccc(-c3cncc(Cl)c3N3CCC4(CCNC4=O)CC3)cc2)cn1	not fulfilled
CCc1cnn2c(NCc3ccc[n+]([O-])c3)cc(N3CCCC[C@H]3CCO)nc12	not fulfilled

Consider the record given below.
Is inhibition at 10 µM at least 50%? Consider CN1CCN(Cc2ccc(NC(=O)Nc3ccc(Oc4ccnc(N)n4)cc3)cc2C(F)(F)F)CC1 not fulfilled

###

Biological target: CDK18/Cyclin Y (Homo sapiens)
Assay: NanoBRET live-cell target engagement, CDK18-NanoLuc/Cyclin Y in HEK-293
Assay type: binding
Settings: CDK18/Y; experiment 1
readout: Inhibition at 10µM (%)
Supply the numeric figure in %, leaving out any unit text.

Answered cases to consult:
CC(C)c1c2cc(-c3ccnc(N[C@H]4CC[C@H](NC5CCOCC5)CC4)n3)ccc2nn1C	91.6
CC(C)c1cnn2c(NCc3ccccc3-n3cccn3)nc(OC3CCCNC3)nc12 (stereo not drawn)	93.4
CN1CCC(c2c(O)cc(O)c3c(=O)cc(-c4ccccc4Cl)oc23)C1CO (stereo not drawn)	55.4

Reported CDK18/Cyclin Y (Homo sapiens) Inhibition at 10µM (%) for item CCn1cnc2c(Nc3cccc(Cl)c3)nc(N[C@@H]3CCCC[C@@H]3N)nc21 [CGP74514A] was 81.1

Reported CDK18/Cyclin Y (Homo sapiens) Inhibition at 10µM (%) for item CS(=O)(=O)N1CCC(NC(=O)c2[nH]ncc2NC(=O)c2c(Cl)cccc2Cl)CC1 was 93.5

Reported CDK18/Cyclin Y (Homo sapiens) Inhibition at 10µM (%) for item CNc1nc(C)c(-c2nc(Nc3cccc(S(N)(=O)=O)c3)ncc2F)s1 was 95.5

###

// Inhibition at 10µM (%) lookup, one value per entry
Molecular target: CDK11B/Cyclin L2 (Homo sapiens, UniProt P21127)
Test: NanoBRET live-cell target engagement, CDK11B-NanoLuc/Cyclin L2 in HEK-293
Format: binding
Details: CDK11b/L2; average
Quick note: number first, unit second.

Answered cases to consult:
CC(C)c1c2cc(-c3ccnc(N[C@H]4CC[C@H](NC5CCOCC5)CC4)n3)ccc2nn1C [LY2857785]	94.8%
CC(C)c1cnn2c(NCc3ccccc3-n3cccn3)nc(OC3CCCNC3)nc12 (stereo not drawn) [LDC4297]	53.6%

// sample CS(=O)(=O)N1CCC(NC(=O)c2[nH]ncc2NC(=O)c2c(Cl)cccc2Cl)CC1 [NVP-LCQ195] , its Inhibition at 10µM (%) was 94.8%

// sample CCn1cnc2c(Nc3cccc(Cl)c3)nc(N[C@@H]3CCCC[C@@H]3N)nc21 [CGP74514A] , its Inhibition at 10µM (%) was 21.5%

// sample CNc1nc(C)c(-c2nc(Nc3cccc(S(N)(=O)=O)c3)ncc2F)s1 [CDKI-73] , its Inhibition at 10µM (%) was 50.2%

// sample CN1CCC(c2c(O)cc(O)c3c(=O)cc(-c4ccccc4Cl)oc23)C1CO (stereo not drawn) [P276-00] , its Inhibition at 10µM (%) was 58.5%
